Reference source for all entries: ChEMBL document CHEMBL1201861

- System: MDA-MB-157
- ASSAY REMARKS: cells
- Type: functional, cell-based, Homo sapiens
- DETAILS: mda-mb-157
- Description: SANGER: Inhibition of human MDA-MB-157 cell growth in a cell viability assay.
ENDPOINT: IC50 (µM)
Please reply with the bare figure in µM and do not write the unit itself.

Fill in: IC50 of CISPLATIN is ___
290

###

- System: EVSA-T;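 note: growth inhibition of EVSA-T cells, read out with a cell viability assay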
- ASSAY REMARKS: cells
- Type: functional, cell-based, Homo sapiens
- DETAILS: evsa-t
- Description: SANGER: Inhibition of human EVSA-T cell growth in a cell viability assay.
ENDPOINT: pIC50
Keep it numeric: pIC50 is minus log10 of the concentration in mol/L.

Enter reported pIC50 observed with EVSA-T for BLEOMYCIN
3.07

###

- System: KM-H2;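 note: growth inhibition of KM-H2 cells, read out by a cell viability assay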
- ASSAY REMARKS: cells
- Assay type: functional, cell-based, Homo sapiens
- DETAILS: Homo sapiens, KM-H2
- Description: SANGER: Inhibition of human KM-H2 cell growth in a cell viability assay.
pIC50: −log10 of the molar value. Counter-ions that a name gives are not always drawn.
Measured pIC50, listed per entry for reference.

// solved cases for pIC50 follow
{"columns": ["COMPOUND", "TARGET OR TEST SYSTEM", "pIC50"],
 "data": [
  ["CC[C@H](CO)Nc1nc(NCc2ccccc2)c2ncn(C(C)C)c2n1 [SELICICLIB]", "KM-H2", "< 4.80"],
  ["COc1cccc2c1C(=O)c1c(O)c3c(c(O)c1C2=O)C[C@@](O)(C(=O)CO)C[C@@H]3O[C@H]1C[C@H](N)[C@H](O)[C@H](C)O1 [DOXORUBICIN]", "KM-H2", 7.04],
  ["COc1cc2ncn(-c3cc(OCc4ccccc4C(F)(F)F)c(C(N)=O)s3)c2cc1OC [GW843682X]", "KM-H2", 7.69],
  ["CN(C)C(=N)NC(=N)N [METFORMIN]", "KM-H2", 1.73]
]}

Fill in: pIC50 of CCN(CC)CCCCNc1ncc2cc(-c3cc(OC)cc(OC)c3)c(NC(=O)NC(C)(C)C)nc2n1 [PD-173074] is ___
< 5.70

Would you mind doing CCN(CC)CCNC(=O)c1c(C)[nH]c(/C=C2\C(=O)Nc3ccc(F)cc32)c1C [SUNITINIB] as well?
< 5.10

Would you mind doing CC(C)CCN1c2nc(Nc3cc(F)c(O)c(F)c3)ncc2N(C)C(=O)C1C (stereo unspecified) as well?
< 5.30

Would you mind doing Nc1cccc2c1CN(C1CCC(=O)NC1=O)C2=O (stereo unspecified) [LENALIDOMIDE] as well?
< 5.30

Would you mind doing CS(=O)(=O)c1ccc(C(=O)Nc2ccc(Cl)c(-c3ccccn3)c2)c(Cl)c1 [VISMODEGIB] as well?
< 5.00

Would you mind doing COC1=CC(c2cc3ccccc3[nH]2)=N/C1=C\c1[nH]c(C)cc1C [OBATOCLAX MESYLATE] as well?
6.15

###

- Test system: NOS-1
- ASSAY REMARKS: cells
- Format: functional, cell-based, Homo sapiens
- DETAILS: Homo sapiens, NOS-1
- Description: SANGER: Inhibition of human NOS-1 cell growth in a cell viability assay.
pIC50: −log10 of the molar value.
Measured pIC50, listed per entry for reference.

{"columns": ["COMPOUND", "pIC50"],
 "data": [
  ["Cc1cn(-c2cc(NC(=O)c3ccc(C)c(Nc4nccc(-c5cccnc5)n4)c3)cc(C(F)(F)F)c2)cn1", "< 5.70"],
  ["CC(C)c1ccccc1Cc1cc(C(=O)Nc2ccc(S(=O)(=O)c3ccccc3C(C)(C)C)cc2)c(O)c(O)c1O", 6.63],
  ["COc1cc2c(Nc3ccc(NC(=O)c4ccccc4)cc3)ncnc2cc1OCCCN1CCOCC1", "< 5.40"],
  ["CN(C)C(=N)NC(=N)N", "< 1.70"],
  ["CS(=O)(=O)c1ccc(C(=O)Nc2ccc(Cl)c(-c3ccccn3)c2)c(Cl)c1", "< 5.00"]
]}

Fill in: pIC50 of CCN(CC)CCNC(=O)c1c(C)[nH]c(/C=C2\C(=O)Nc3ccc(F)cc32)c1C is ___
7.82

Would you mind doing COc1cc(N2CCN(C)CC2)ccc1Nc1ncc2c(n1)N(C)c1ccccc1C(=O)N2C as well?
5.45

Would you mind doing COc1cc2ncn(-c3cc(OCc4ccccc4S(C)(=O)=O)c(C#N)s3)c2cc1OC [GSK-319347A] as well?
< 5.30
